experimentalDetails: PhoP regulon inhibitor project modified counter assay, GFP fluorescence readout, dose response (AID 1985)
conditionsUsed: S. Typhi, 4 h; series mostly up to 150 µM
Hit rate of the full screen: of about 2,300 compounds, about 1,000 (43%) were called active. So high a share suggests a set chosen from earlier hits. The list shows a part of the results. Entries with a potency or affinity are not part of this list.
endpoint: outcome

>>> reported("O=C(NCc1cccnc1)c1ccc(Cl)cc1[N+](=O)[O-]")
"inactive"
>>> reported("Cc1cc2ccccc2c(=O)n1CC(=O)NCCC1=CCCCC1")
"inactive"
>>> reported("COc1ccc(C(C(=O)Nc2ccc(C(C)C)cc2)N(Cc2ccco2)C(=O)CC2NC(=O)NC2=O)cc1 (stereo unspecified)")
"inactive"
>>> reported("COC(=O)CNc1n[nH]c(=S)[nH]c1=O")
"inactive"
>>> reported("O=C(NCc1cccnc1)C1c2ccccc2C(=O)N1Cc1ccccc1 (stereo unspecified)")
"inactive"
>>> reported("c1ccc(CNc2nc(-c3ccccn3)nc3ccccc23)cc1")
"inactive"

====

experimentalDetails: PhoP regulon inhibitor project modified counter assay, GFP fluorescence readout, dose response (AID 1985)
conditionsUsed: S. Typhi, 4 h; series mostly up to 150 µM
In all, about 2,300 compounds went through this assay and about 1,000 (43%) were called active. The set was probably picked from earlier hits. Some of the results follow. Results with a measured potency or affinity are listed apart.
endpoint: outcome

>>> reported("COC(=O)c1ccc(C)c(NC(=O)CN2C(=O)c3ccccc3S2(=O)=O)c1")
"inactive"
>>> reported("COc1ccc(OC)c(NC(=O)CSc2nnc3ccc(-c4ccncc4)nn23)c1")
"inactive"
>>> reported("Cc1ccc(/C=N/NC(=O)Cc2cccn2C)cc1")
"inactive"
